- test.protocol: Oral bioavailability in rat
- Assay type: ADME, organism-based
- experimental.conditions: in vivo
measured.property: bioavailability (%)

COc1ccc(NS(=O)(=O)C(F)(F)F)cc1C[C@@H]1COc2ccc(OCc3ccc4ccc(Cl)cc4n3)cc2[C@@H]1O 53
COc1ccc(NS(=O)(=O)C(F)(F)F)cc1C[C@@H]1COc2ccc(OCc3nc4cc(F)c(F)cc4s3)cc2[C@@H]1O 46
